- Test system: HCT-116 cells
- Assay: MTT cytotoxicity assay, HCT-116
- Type: cell-based, human
- Details: colorectal cancer HCT-116, MTT, 72 h
Listed here: items and their measured pIC50.
Please note pIC50 is a logarithmic value: minus log10 of concentration in mol/L. Answer with that number alone.

O=[N+]([O-])c1ccc(-n2cc(CSc3nnc(-c4ccccc4)o3)nn2)cc1 [Compound 11] ... 3.99

Consider the record given below.
Consider the compound Clc1ccccc1-n1cc(CSc2nnc(-c3ccccc3)o2)nn1 [Compound 8] . State its measured pIC50. 3.97

---

- Tested on: HEK 293 cells
- Assay: MTT assay on non-tumorigenic cell line HEK 293
- Assay type: cell-based
- Details: HEK293, normal human embryonic kidney cells
pIC50: −log10 of the molar value.
Catalogue of pIC50 readings, one per entry.

COC(=O)c1ccccc1-n1cc(CSc2nnc(-c3ccccc3)o2)nn1 [Compound 13] ... < 4.30

Here is the next item to consider.
Give reported pIC50 value for c1ccc(-c2nnc(SCc3cn(-c4ccccc4)nn3)o2)cc1 [Compound 12] < 4.30
